Test system: SN12C renal
assay: NCI-60 one-dose screen, 48 h
studyConditions: 10 µM unless noted
This is part of a sample that, as a whole, favours compounds with a hit. Of some 83,000 tested, about 20% had one in any assay. Active and inactive are the calls of the source. How the source made its calls: active means growth percent below 10; inactive means the rest.
Respond using exactly one of the listed classes: 1 (yes) (active), 0 (no) (inactive)

// below: answered compounds
compound=C=CCOc1ccc(N=NC(C#N)C#N)cc1 classlabel="0 (no)"
compound=COc1ccccc1/C=C\C(=O)c1ccccc1 classlabel="0 (no)"
compound=NC(=S)N/N=C/c1ccc(Cl)s1 classlabel="0 (no)"

In: I'd appreciate the recorded outcome for NC(=O)/C=C/C(=O)c1c(Cl)cccc1Cl from this test.
Out: 1 (yes)

In: I'd appreciate the recorded outcome for COC(=O)c1nc(=S)[nH]c(C(=O)OC)c1C(=O)c1ccccn1 from this test.
Out: 0 (no)

In: I'd appreciate the recorded outcome for CC(=Nc1ccc(N(C)C)cc1)c1ccccc1 from this test.
Out: 0 (no)

In: I'd appreciate the recorded outcome for CC1(C)CC([P+](c2ccccc2)(c2ccccc2)c2ccccc2)=NN1 from this test.
Out: 0 (no)

In: I'd appreciate the recorded outcome for Cc1ccnc(NC(c2ccccc2)c2ccc3cccnc3c2O)c1 (stereo unspecified) from this test.
Out: 0 (no)

In: I'd appreciate the recorded outcome for NC(=S)N/N=C\c1nccc2c(C(F)(F)C(F)(F)C(F)(F)F)cccc12 from this test.
Out: 0 (no)
